# tgt: T1, rVEGF164 (rat, UniProt P16612-2 27-190)
# T1 sequence: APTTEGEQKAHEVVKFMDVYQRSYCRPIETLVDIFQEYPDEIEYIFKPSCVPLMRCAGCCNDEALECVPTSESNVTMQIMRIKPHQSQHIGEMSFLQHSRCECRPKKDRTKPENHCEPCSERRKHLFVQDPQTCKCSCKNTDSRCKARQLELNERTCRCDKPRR
# method-description: ELONA1
endpoint-label: pKd
Numbers only, as −log10 of the molar value.

Req: Assign pKd to the following record: TGTGGGGGTGGACGGGCCGGGTAGA (ssDNA) [V7t1]
Resp: 9.21
